- system-under-test: UniProt P49327
- Sequence (P49327 whole entry): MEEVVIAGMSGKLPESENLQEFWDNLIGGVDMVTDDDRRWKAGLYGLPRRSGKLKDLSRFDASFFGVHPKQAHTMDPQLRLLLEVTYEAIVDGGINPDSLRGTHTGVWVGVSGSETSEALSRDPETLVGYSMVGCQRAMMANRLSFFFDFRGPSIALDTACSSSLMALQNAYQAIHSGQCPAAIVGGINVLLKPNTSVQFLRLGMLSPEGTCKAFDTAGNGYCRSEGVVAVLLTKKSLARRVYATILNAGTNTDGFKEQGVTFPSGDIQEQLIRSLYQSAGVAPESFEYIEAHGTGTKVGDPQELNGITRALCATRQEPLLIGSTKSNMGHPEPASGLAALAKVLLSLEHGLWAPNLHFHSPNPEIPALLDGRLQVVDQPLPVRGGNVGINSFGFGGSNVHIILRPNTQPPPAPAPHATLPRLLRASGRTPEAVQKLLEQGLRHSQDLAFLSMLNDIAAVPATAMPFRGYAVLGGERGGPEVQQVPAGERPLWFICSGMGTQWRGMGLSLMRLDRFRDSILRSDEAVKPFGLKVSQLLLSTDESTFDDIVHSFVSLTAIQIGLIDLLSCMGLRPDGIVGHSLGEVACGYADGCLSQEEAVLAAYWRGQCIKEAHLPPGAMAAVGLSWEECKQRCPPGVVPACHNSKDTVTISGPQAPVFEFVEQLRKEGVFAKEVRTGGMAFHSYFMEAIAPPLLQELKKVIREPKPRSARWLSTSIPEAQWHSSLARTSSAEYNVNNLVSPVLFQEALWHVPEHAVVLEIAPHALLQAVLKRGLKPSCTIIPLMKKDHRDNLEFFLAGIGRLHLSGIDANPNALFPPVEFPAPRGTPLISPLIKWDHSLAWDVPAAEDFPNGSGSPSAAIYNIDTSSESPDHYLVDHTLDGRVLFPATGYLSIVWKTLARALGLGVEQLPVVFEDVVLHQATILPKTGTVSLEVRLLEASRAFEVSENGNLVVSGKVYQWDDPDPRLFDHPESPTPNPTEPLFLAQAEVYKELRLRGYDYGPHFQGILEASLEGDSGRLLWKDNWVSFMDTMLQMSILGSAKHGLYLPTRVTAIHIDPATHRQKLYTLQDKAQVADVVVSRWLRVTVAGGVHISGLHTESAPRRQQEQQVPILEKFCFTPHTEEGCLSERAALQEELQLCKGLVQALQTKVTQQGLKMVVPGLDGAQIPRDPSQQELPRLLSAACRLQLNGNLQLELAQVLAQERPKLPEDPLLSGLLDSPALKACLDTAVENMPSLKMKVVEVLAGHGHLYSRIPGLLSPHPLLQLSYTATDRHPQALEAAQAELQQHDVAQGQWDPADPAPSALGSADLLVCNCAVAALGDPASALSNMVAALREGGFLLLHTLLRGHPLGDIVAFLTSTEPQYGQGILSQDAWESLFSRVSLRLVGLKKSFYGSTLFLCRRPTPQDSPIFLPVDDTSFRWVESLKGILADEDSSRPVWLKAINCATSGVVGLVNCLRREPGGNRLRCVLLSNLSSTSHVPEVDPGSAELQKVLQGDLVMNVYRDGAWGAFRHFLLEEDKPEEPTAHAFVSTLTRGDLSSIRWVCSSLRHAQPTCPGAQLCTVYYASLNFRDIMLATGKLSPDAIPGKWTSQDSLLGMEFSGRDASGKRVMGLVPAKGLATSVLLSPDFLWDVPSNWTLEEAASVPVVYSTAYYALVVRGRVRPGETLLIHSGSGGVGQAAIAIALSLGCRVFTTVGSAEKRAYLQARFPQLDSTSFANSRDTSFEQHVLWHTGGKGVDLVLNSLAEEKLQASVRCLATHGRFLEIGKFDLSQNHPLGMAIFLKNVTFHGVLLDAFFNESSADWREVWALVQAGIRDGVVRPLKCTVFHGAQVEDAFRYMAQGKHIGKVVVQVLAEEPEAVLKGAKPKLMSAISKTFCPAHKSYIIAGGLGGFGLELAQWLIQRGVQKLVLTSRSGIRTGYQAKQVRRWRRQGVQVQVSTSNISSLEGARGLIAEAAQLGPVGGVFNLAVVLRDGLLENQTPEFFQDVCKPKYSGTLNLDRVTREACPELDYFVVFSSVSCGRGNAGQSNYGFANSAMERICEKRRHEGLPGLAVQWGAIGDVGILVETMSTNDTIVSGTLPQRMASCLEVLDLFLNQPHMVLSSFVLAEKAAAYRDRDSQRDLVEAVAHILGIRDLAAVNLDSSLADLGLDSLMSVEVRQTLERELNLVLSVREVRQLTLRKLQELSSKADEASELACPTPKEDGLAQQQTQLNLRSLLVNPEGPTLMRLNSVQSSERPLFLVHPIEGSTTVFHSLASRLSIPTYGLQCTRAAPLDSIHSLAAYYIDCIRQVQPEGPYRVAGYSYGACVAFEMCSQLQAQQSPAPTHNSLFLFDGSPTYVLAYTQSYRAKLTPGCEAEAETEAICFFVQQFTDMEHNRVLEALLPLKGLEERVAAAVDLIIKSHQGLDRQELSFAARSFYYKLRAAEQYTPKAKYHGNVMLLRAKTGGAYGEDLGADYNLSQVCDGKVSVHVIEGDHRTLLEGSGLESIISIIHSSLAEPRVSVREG
- measurement-notes: inhibition of human FAS-TE enzyme activity – biochemical, endpoint fluorescence intensity, uHTS hits, dose response (AID 624327);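 further: fluorescence from hydrolysis of an O-methyl fluorescein acyl ester substrate by the enzyme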
- Type: functional
Active and inactive are the calls of the source.
experimental-endpoint: IC50

For orientation, consider the following solved cases.
COc1ccc(N2C(=O)NC3CC2(C)Oc2ccc(Br)cc23)cc1OC (stereo not given) = 4.93 µM (active)
Cc1cc(Cl)ccc1NC(=O)CCC(=O)N/N=C/c1cc([N+](=O)[O-])ccc1O = 12.8 µM (active)
N#Cc1cc(-c2ccccc2)nc(Oc2ccccc2)n1 = 12.2 µM (active)
CC(NC(=O)COC(=O)c1cc([N+](=O)[O-])ccc1N1CCOCC1)c1ccccc1 (stereo not given) = 4.64 µM (active)
O=C(NCCc1cccc(Cl)c1)c1ccc(Cl)c([N+](=O)[O-])c1 = 9.28 µM (active)

// below: IC50 requested for another molecule
Task: Return IC50 for the following molecule: O=[N+]([O-])c1ccc(NCc2ccc(Cl)cc2)c2ccncc12
Result: 3.17 µM (active)

* * *

- system-under-test: Kappa-type opioid receptor (Homo sapiens)
- Sequence (P41145 whole entry): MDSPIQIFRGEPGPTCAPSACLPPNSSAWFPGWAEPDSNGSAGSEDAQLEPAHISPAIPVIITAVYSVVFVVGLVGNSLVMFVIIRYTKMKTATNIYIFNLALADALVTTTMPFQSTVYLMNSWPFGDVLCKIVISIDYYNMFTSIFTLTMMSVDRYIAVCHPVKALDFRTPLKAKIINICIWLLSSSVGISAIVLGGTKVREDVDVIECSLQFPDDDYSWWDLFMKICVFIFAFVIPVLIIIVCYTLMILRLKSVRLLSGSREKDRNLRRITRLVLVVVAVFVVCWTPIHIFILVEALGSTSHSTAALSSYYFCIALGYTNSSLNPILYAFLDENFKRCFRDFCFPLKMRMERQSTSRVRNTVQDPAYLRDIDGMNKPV
- Format: functional
experimental-endpoint: pIC50
In simple prose, pIC50 is minus the logarithm base ten of a concentration in moles per litre.

Task: Supply measured pIC50 of COc1ccc(C(=O)/C=C/C(=O)N(CC(=O)NC2CCCCC2)Cc2ccccc2)c(O)c1 in your reply.
Result: 5.08

* * *

- measurement-notes: viability of uninfected HEp-2 cells – cell-based, HTS, cytotoxicity control for RSV inhibitor project, dose response (AID 2410)
- Format: functional
- assay-setup: human respiratory syncytial virus
Activity calls are given as the source filed them.
Here the recorded CC50 is given for each entry.

Take a look at these entries with their results.
CN(CC(=O)Nc1ccc(Cl)c(C(F)(F)F)c1)C(=O)CCCNC(=O)c1ccc(Cl)cc1 = 2.49 µM (active)
N#CCSc1nc2ccccc2c2nc3ccccc3n12 = 7.62 µM (active)
O=C1CCCC2=C1C(c1ccccc1)C1C(=O)c3ccccc3C1=N2 (centres undefined) = > 50 µM (active)

Now consider the entry below.
Task: State, in one line, measured CC50 of COc1cc(NC(=O)c2cnc(N)s2)cc(C(=O)Nc2cccc(C(F)(F)F)c2)c1
Result: 23.6 µM (active)

* * *

- system-under-test: UniProtKB G5EF15
- Sequence (G5EF15 whole entry): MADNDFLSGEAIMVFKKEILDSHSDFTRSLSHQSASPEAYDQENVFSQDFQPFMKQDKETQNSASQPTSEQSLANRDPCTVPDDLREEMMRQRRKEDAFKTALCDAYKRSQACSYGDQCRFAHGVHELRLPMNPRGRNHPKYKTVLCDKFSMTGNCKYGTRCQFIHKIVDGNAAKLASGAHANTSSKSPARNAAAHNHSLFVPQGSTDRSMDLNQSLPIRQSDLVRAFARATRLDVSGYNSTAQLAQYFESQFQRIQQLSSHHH
- measurement-notes: disruptors of C. elegans POS-1 RNA interaction – biochemical, fluorescence polarization, dose response (AID 1964);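 further: purified POS-1 fused to maltose binding protein made in E. coli; potency of compounds blocking POS-1 binding to fluorescent RNA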
The source made the active and inactive calls.
experimental-endpoint: EC50

Would you please look over these solved cases?
Cc1ccc2oc(=O)c(/C=C(\O)c3cccs3)nc2c1 = 21.3 µM (inconclusive)
O=C1c2cccc3c(N4CCCCC4)ccc(c23)C(=O)N1CCO = 65.2 µM (active)
Cc1c(Cl)cccc1N=C(S)N1CCN(C(=O)C2CCCO2)CC1 (stereo not given) = > 300 µM (not active)
O=C(c1ccc(Br)o1)N1CCN=C1SCc1cccc(F)c1 = > 300 µM (not active)

Field: next compound
Task: Write down EC50 measured for item O=C1NC(=O)N(c2ccc(Cl)cc2)C(=O)/C1=C/NCCN1CCCCC1
Result: > 300 µM (not active)
